molecular target: CK2A1 (Homo sapiens); construct: purchased Eurofins; assay: Radiometric kinase assay (Eurofins), CK2A1; type: biochemical; details: Table 8; quinazolinones; read-out: CK2A1 RAD IC50
Sequence (P68400 whole entry): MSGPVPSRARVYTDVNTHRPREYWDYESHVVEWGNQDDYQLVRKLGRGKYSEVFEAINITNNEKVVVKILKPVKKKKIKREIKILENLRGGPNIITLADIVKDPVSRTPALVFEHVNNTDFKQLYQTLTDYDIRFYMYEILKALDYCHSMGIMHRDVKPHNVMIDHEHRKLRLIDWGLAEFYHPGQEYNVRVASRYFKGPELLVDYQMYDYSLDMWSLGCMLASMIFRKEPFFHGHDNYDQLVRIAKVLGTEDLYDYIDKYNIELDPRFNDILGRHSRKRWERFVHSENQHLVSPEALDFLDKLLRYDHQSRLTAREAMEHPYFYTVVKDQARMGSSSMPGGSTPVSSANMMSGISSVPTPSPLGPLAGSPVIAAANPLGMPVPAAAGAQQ
recordedMetric: IC50 (µM)

| compound | measuredOn | IC50 [µM] |
| --- | --- | --- |
| Cn1c(-c2ccc(O)c(Br)c2)nc2c(Br)cccc2c1=O [JKT.866A] | CK2A1 (Homo sapiens) | 4.59 |

[1] O=c1[nH]c(-c2cc(F)c(O)c(F)c2)nc2c(Cl)cc(Cl)cc12 [JKT.808A]
[2] COc1nc(-c2nc3c(Br)cccc3c(=O)[nH]2)ccc1O [JKT.975A]
Query: // returns 1 or 2 , whichever has the lower IC50 Mark your answer with the label of the selected entry.
Result: 2
